Data provenance is PubChem BioAssay (NCI).

The entries below are paired with their reported growth.
System: HCT-15 colon
Experiment: NCI-60 one-dose screen, 48 h (100 = growth as untreated, 0 = no growth, -100 = all killed)
Details: 10 µM
Experimental: Growth inhibition of the HCT-15 human tumor cell line is measured as a screen for anti-cancer activity. Cells are grown in 96 well plates and exposed to the test compound for 48 hours. Compounds are tested at a single concentration, which is 10^-5 M for most compounds. The reported endpoint is percent growth (GI% or GIPRCNT), where numbers from 0 - 100% represent growth inhibition, and numbers from -100% - 0 represent cell death. For example, a value of 40 represents 60% growth inhibition. […]
This is part of a sample that, as a whole, favours compounds with a hit. Of some 83,000 tested, about 20% had one in any assay. Calls of active or inactive are those of the source. Rule for the calls: active = growth percent below 10; inactive = the rest.

Answered cases to consult:
O=C(c1ccc(Cl)cc1)C1[C@H](c2ccccc2Br)[C@@H](c2ccccc2)NC12C(=O)Nc1ccc(Br)cc12 (stereo not given in full)
9.81% (active)
Cc1cc(C)nc(NS(=O)(=O)c2ccc(N/C(N)=N/c3nccc(-c4ccccc4)n3)cc2)n1
59.4% (inactive)

For the compound CCOC(=O)C1=C(N)N(c2ccc(Cl)cc2)C2=C(C(=O)CC(C)(C)C2)C1c1ccc(N2CCOCC2)cc1 (stereo not given) , what growth is on record? 92.5% (inactive)

Form field: reported growth of CN1C(=O)N(C)C2SC(N/N=C/c3ccccc3)=NC21 (stereo not given) 30.1% (inactive)

Fill in: growth of CC(=O)Nc1nc(-c2ccc(N3CCN(C)CC3)c(NS(=O)(=O)c3ccc(C(F)(F)F)cc3)c2)cs1 is ___ -67.7% (active)

Consider the compound Brc1ccc(/C=N/Nc2ncnc3sc4c(c23)CCN(Cc2ccccc2)C4)cc1 and give its measured growth. 58.3% (inactive)
